# Tested on: SKBR-3
# testProtocol: In vitro cytotoxicity assay (MTT)
# Assay type: cell-based, human
# recordedConditions: Homo sapiens, SK-BR-3, 144 h, 6 days incubation
# Description: In vitro cytotoxicity of compounds of the disclosure was assessed on several cancerous human cell lines. […] Absorbance values were measured on a microplate reader using a wavelength of 570 nm (with a reference wavelength of 690 nm). The IC50 concentration values compared to untreated control cells were determined using inhibition dose response curve fitting (GraphPad Prism 9). […]
quantity: pIC50
pIC50 is a log-scale quantity: -log10 of the concentration expressed in molar.

Input: Entry CNCCN(C)c1nc(NCc2ccc(-c3ccccn3)cc2)n2ncc(Br)c2n1 needs its pIC50 filled in; supply it.
Output: 8.13

Input: Report pIC50 for N[C@H]1CC[C@H](Nc2nc(NCc3ccc(-c4ccccn4)cc3)n3ncc(Br)c3n2)CC1
Output: 9.14

Further cases:
Input: # return recorded pIC50 for entry N[C@H]1CCC[C@@H](Nc2nc(NCc3ccc(-c4ccccn4)cc3)n3ncc(Br)c3n2)C1
Output: 9.14

Input: Entry CC(C)c1cnn2c(NCc3ccc(-c4ccccn4)cc3)nc(N[C@H]3CC[C@H](N)CC3)nc12 needs its pIC50 filled in; supply it.
Output: 8.49

Input: Look up and report measured pIC50 for this entry: NCCCCNc1nc(NCc2ccc(-c3ccccn3)cc2)n2ncc(Br)c2n1
Output: 7.41

Input: Look up and state reported pIC50 for N[C@H]1CCC[C@@H]1Nc1nc(NCc2ccc(-c3ccccn3)cc2)n2ncc(Br)c2n1
Output: 9.70

---

# Tested on: MDA-MB-453
# testProtocol: In vitro cytotoxicity assay (MTT)
# Type: cell-based, human
# recordedConditions: 6 days incubation
quantity: pIC50
# pIC50 = -log10(concentration in molar units)

The examples below pair each entry with its known result.
Input: State its pIC50: CC[C@H](CO)Nc1nc(NCc2ccc(-c3ccccn3)cc2)c2ncn(C(C)C)c2n1 [CR8, reference compound]
Output: 7.39

Input: Check the records and state pIC50 for Brc1cnn2c(NCc3ccc(-c4ccccn4)cc3)nc(N[C@H]3CCNC3)nc12
Output: 9.11

Continuing:
Input: Given N#Cc1cnn2c(NCc3ccc(-c4ccccn4)cc3)nc(N[C@H]3CC[C@H](N)CC3)nc12 , respond with its pIC50.
Output: 8.87

Input: Recall and state the measured pIC50 for Brc1cnn2c(NCc3ccc(-c4ccccn4)cc3)nc(N[C@@H]3CCCNC3)nc12 .
Output: 9.17

---

# IC50 annotations
# System: MDA-MB-453
# testProtocol: In vitro cytotoxicity assay (MTT)
# Assay type: cell-based, human
# recordedConditions: Homo sapiens, MDA-MB-453, 144 h, 6 days incubation
The response must be a number in nM with no trailing unit.

Some molecules with known IC50 results, for comparison:
Input: Provide IC50, system MDA-MB-453, entry N[C@H]1CC[C@H](Nc2nc(NCc3ccc(-c4ccccn4)cc3)n3ncc(Cl)c3n2)CC1
Output: 0.77

Input: For MDA-MB-453, give IC50 of the listed molecule: Brc1cnn2c(NCc3ccc(-c4ccccn4)cc3)nc(N3CCC(N4CCNCC4)CC3)nc12
Output: 21.1

Input: Give MDA-MB-453 IC50 for the following molecule: Brc1cnn2c(NCc3ccc(-c4ccccn4)cc3)nc(N[C@@H]3CCNC3)nc12
Output: 1.13

Switching to the query record.
Input: GET IC50 where system = MDA-MB-453 and item = N[C@H]1CCCC[C@H]1Nc1nc(NCc2ccc(-c3ccccn3)cc2)n2ncc(Br)c2n1
Output: 0.76
